The reported numbers originate from the supplement of paper PMC10567573.

B1: TCEB3B (parent)
chain: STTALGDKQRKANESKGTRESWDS

- Variants of: B1
- assayRemarks: protein stability index of a GFP-peptide fusion (GPS, HEK-293T) (PSI 1-6); higher = more stable;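 also: lentivirally expressed fusions sorted by FACS into six bins by GFP to DsRed ratio, PSI derived from sequencing read proportions per bin multiplied by bin number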
- conditionParameters: c terminus: a fixed tail appended
quantityMeasured: protein stability index
Reply with the value as a number alone.

INSERT INTO results (biosequence, quantitymeasured, val) VALUES
  ('STTQLGDKQRKANESKGTRESWDS [A4Q]', 'protein stability index', 3.9);

Prompt: Read off the recorded protein stability index for SKTALGDKQRKANESKGTRESWDS [T2K]
Completion: 4.11

Prompt: Read off the recorded protein stability index for STTALGDKQRWANESKGTRESWDS [K11W]
Completion: 3.99

Prompt: Read off the recorded protein stability index for STTALGDKQLKANESKGTRESWDS [R10L]
Completion: 4.28

Prompt: Read off the recorded protein stability index for STTALGDKWRKANESKGTRESWDS [Q9W]
Completion: 2.45

Prompt: Read off the recorded protein stability index for STTALGDKYRKANESKGTRESWDS [Q9Y]
Completion: 3.64

Prompt: Read off the recorded protein stability index for STTALGDKQRKANESSGTRESWDS [K16S]
Completion: 4.42

Prompt: Read off the recorded protein stability index for STTALGDKQRKANESKGTRESWDY [S24Y]
Completion: 4.46

Prompt: Read off the recorded protein stability index for STTALGDKQRKTNESKGTRESWDS [A12T]
Completion: 3.59

Prompt: Read off the recorded protein stability index for STTALGDKQRKANESKGTRASWDS [E20A]
Completion: 4.82

Prompt: Read off the recorded protein stability index for STTALIDKQRKANESKGTRESWDS [G6I]
Completion: 3.59

Prompt: Read off the recorded protein stability index for STMALGDKQRKANESKGTRESWDS [T3M]
Completion: 4.1

Prompt: Read off the recorded protein stability index for STTVLGDKQRKANESKGTRESWDS [A4V]
Completion: 3.96

Prompt: Read off the recorded protein stability index for STTALGDKQRKANESKLTRESWDS [G17L]
Completion: 3.21

Prompt: Read off the recorded protein stability index for STTALGDKQRKANESKGTRESCDS [W22C]
Completion: 5.1

Prompt: Read off the recorded protein stability index for STTALGDKQRKANSSKGTRESWDS [E14S]
Completion: 3.82

Prompt: Read off the recorded protein stability index for STTALGDKQRQANESKGTRESWDS [K11Q]
Completion: 3.79

Prompt: Read off the recorded protein stability index for STTALGDKQRIANESKGTRESWDS [K11I]
Completion: 4.02
